test system: Streptococcus pneumoniae ATCC 6303; experiment: In vitro agar dilution MIC, organism code XX; type: cell-based; conditions: Table 1D, unit assumed
MIC reference
API: value field is a number in µg/mL; no unit string.

The examples below pair each entry with its known result.
Please fill in: MIC reported for CC[C@H]1OC(=O)[C@H](C)C(=O)[C@H](C)[C@@H](O[C@@H]2O[C@H](C)C[C@H](N(C)C)[C@H]2O)[C@](C)(OC/C=C/c2cnc3ccccc3c2)C[C@@H](C)C(=O)[C@H](C)[C@H]2NC(=O)O[C@@]21C [Standard A, reference compound] = 0.03

Please fill in: MIC reported for `CC[C@H]1OC(=O)[C@@](C)(F)C(=O)[C@H](C)[C@@H](O[C@@H]2O[C@H](C)C[C@H](N(C)C)[C@H]2O)[C@](C)(OC/C=C/c2cnc3ccccc3c2)C[C@@H](C)C(=O)[C@H](C)[C@H]2NC(=O)O[C@@]21C` = 0.03

Please fill in: MIC reported for CC[C@H]1OC(=O)[C@H](C)C(=O)[C@H](C)[C@@H](O[C@@H]2O[C@H](C)C[C@H](N(C)C)[C@H]2O)[C@](C)(OC/C=C/c2ccc3nccnc3c2)C[C@@H](C)C(=O)[C@H](C)[C@H]2NC(=O)O[C@@]21C [Standard C, reference compound] = 0.015

Moving on to another compound below.
Please fill in: MIC reported for CC[C@H]1OC(=O)[C@H](C)C(=O)[C@H](C)[C@@H](O[C@@H]2O[C@H](C)C[C@H](N(C)C)[C@H]2O)[C@](C)(OC/C=C/c2ccccc2)C[C@@H](C)C(=O)[C@H](C)[C@H]2NC(=O)O[C@@]21C [Standard B, reference compound] = 0.03

----------
tested on: Streptococcus pyogenes 930; assay: In vitro agar dilution MIC, organism code MM; type: cell-based; conditions: Table 1B, unit assumed
readout: MIC (µg/mL)
API: value field is a number in µg/mL; no unit string.

Please fill in: MIC reported for `CC[C@H]1OC(=O)[C@@](C)(F)C(=O)[C@H](C)[C@@H](O[C@@H]2O[C@H](C)C[C@H](N(C)C)[C@H]2O)[C@](C)(OC/C=C/c2cnc3ccc(C=NN=C(C)C)cc3c2)C[C@@H](C)C(=O)[C@H](C)[C@H]2NC(=O)O[C@@]21C` = 1.56

Please fill in: MIC reported for `CC[C@H]1OC(=O)[C@@](C)(F)C(=O)[C@H](C)[C@@H](O[C@@H]2O[C@H](C)C[C@H](N(C)C)[C@H]2O)[C@](C)(OC/C=C/c2cnc3ccc(NC(=O)OC(C)(C)C)cc3c2)C[C@@H](C)C(=O)[C@H](C)[C@H]2NC(=O)O[C@@]21C` = 12.5

Please fill in: MIC reported for `CC[C@H]1OC(=O)[C@@](C)(F)C(=O)[C@H](C)[C@@H](O[C@@H]2O[C@H](C)C[C@H](N(C)C)[C@H]2O)[C@](C)(OC/C=C/c2cnc3ccc(C=NN)cc3c2)C[C@@H](C)C(=O)[C@H](C)[C@H]2NC(=O)O[C@@]21C` = 1.56

Please fill in: MIC reported for `CC[C@H]1OC(=O)[C@@](C)(F)C(=O)[C@H](C)[C@@H](O[C@@H]2O[C@H](C)C[C@H](N(C)C)[C@H]2O)[C@](C)(OC/C=C/c2cnc3ccccc3c2)C[C@@H](C)C(=O)[C@H](C)[C@H]2NC(=O)O[C@@]21C` = 0.2

Others:
Please fill in: MIC reported for `CC[C@H]1OC(=O)[C@@](C)(F)C(=O)[C@H](C)[C@@H](O[C@@H]2O[C@H](C)C[C@H](N(C)C)[C@H]2O)[C@](C)(OC/C=C/c2cnc3ccc(N(C)C)cc3c2)C[C@@H](C)C(=O)[C@H](C)[C@H]2NC(=O)O[C@@]21C` = 0.78

----------
test system: Escherichia coli SS; test: In vitro agar dilution MIC, organism code RR; assay type: cell-based; conditions: Table 1B, in µg/mL (unit assumed)
MIC reference
Just the number, please.

Please fill in: MIC reported for CC[C@H]1OC(=O)C(C)(F)C(=O)[C@H](C)[C@@H](O[C@@H]2O[C@H](C)C[C@H](N(C)C)[C@H]2O)[C@](C)(OCC#CC(=O)c2cccs2)C[C@@H](C)C(=O)[C@H](C)[C@H]2NC(=O)O[C@@]21C (some centres unmarked) [Example 24] = 3.1

Moving on to another molecule below.
Please fill in: MIC reported for CC[C@H]1OC(=O)C(C)(F)C(=O)[C@H](C)[C@@H](O[C@@H]2O[C@H](C)C[C@H](N(C)C)[C@H]2O)[C@](C)(OCC#Cc2cnc3ccccc3c2)C[C@@H](C)C(=O)[C@H](C)[C@H]2NC(=O)O[C@@]21C (some centres unmarked) [Example 26] = 0.2

----------
test system: Streptococcus pneumoniae ATCC 6303; assay: In vitro agar dilution MIC, organism code XX; type: cell-based; conditions: Table 1B, unit assumed
readout: MIC (µg/mL)
API: value field is a number in µg/mL; no unit string.

Please fill in: MIC reported for CC[C@H]1OC(=O)[C@@](C)(F)C(=O)[C@H](C)[C@@H](O[C@@H]2O[C@H](C)C[C@H](N(C)C)[C@H]2O)[C@](C)(OC/C=C/c2cnc3ccc(N(C)C)cc3c2)C[C@@H](C)C(=O)[C@H](C)[C@H]2NC(=O)O[C@@]21C [Example 13] = 0.06

----------
tested on: Escherichia coli SS; experiment: In vitro agar dilution MIC, organism code RR; type: cell-based; details: Table 1B, in µg/mL (unit assumed)
readout: MIC

Please fill in: MIC reported for `CC[C@H]1OC(=O)[C@@](C)(F)C(=O)[C@H](C)[C@@H](O[C@@H]2O[C@H](C)C[C@H](N(C)C)[C@H]2O)[C@](C)(OC/C=C/c2ccc3ncccc3c2)C[C@@H](C)C(=O)[C@H](C)[C@H]2NC(=O)O[C@@]21C` = 0.1

Others:
Please fill in: MIC reported for CC[C@H]1OC(=O)C(C)(F)C(=O)[C@H](C)[C@@H](O[C@@H]2O[C@H](C)C[C@H](N(C)C)[C@H]2O)[C@](C)(OCC#Cc2ccc(-c3cccs3)s2)C[C@@H](C)C(=O)[C@H](C)[C@H]2NC(=O)O[C@@]21C (some centres unmarked) = 0.78

----------
test system: Streptococcus pneumoniae ATCC 6303; test: In vitro agar dilution MIC, organism code XX; assay type: cell-based; settings: Table 1B, unit assumed
readout: MIC

The examples below pair each entry with its known result.
Please fill in: MIC reported for CC[C@H]1OC(=O)[C@@](C)(F)C(=O)[C@H](C)[C@@H](O[C@@H]2O[C@H](C)C[C@H](N(C)C)[C@H]2O)[C@](C)(OC/C=C/c2cnc3ccc(CS(N)(=O)=O)cc3c2)C[C@@H](C)C(=O)[C@H](C)[C@H]2NC(=O)O[C@@]21C [Example 14] = ≤ 4 ng/mL

Please fill in: MIC reported for CC[C@H]1OC(=O)[C@@](C)(F)C(=O)[C@H](C)[C@@H](O[C@@H]2O[C@H](C)C[C@H](N(C)C)[C@H]2O)[C@](C)(OC/C=C/c2ccccc2)C[C@@H](C)C(=O)[C@H](C)[C@H]2NC(=O)O[C@@]21C [Example 7] = ≤ 4 ng/mL

Please fill in: MIC reported for CC[C@H]1OC(=O)[C@@](C)(F)C(=O)[C@H](C)[C@@H](O[C@@H]2O[C@H](C)C[C@H](N(C)C)[C@H]2O)[C@](C)(OC/C=C/c2cnc3ccc(C=NN)cc3c2)C[C@@H](C)C(=O)[C@H](C)[C@H]2NC(=O)O[C@@]21C [Example 19] = 60 ng/mL

Moving on to another compound below.
Please fill in: MIC reported for CC[C@H]1OC(=O)C(C)(F)C(=O)[C@H](C)[C@@H](O[C@@H]2O[C@H](C)C[C@H](N(C)C)[C@H]2O)[C@](C)(OCC#Cc2ccc(-c3cccs3)s2)C[C@@H](C)C(=O)[C@H](C)[C@H]2NC(=O)O[C@@]21C (stereo partly shown) [Example 28] = ≤ 4 ng/mL

----------
system: Mycobacterium smegmatis ATCC 114; assay: In vitro agar dilution MIC, organism code UU; format: cell-based; conditions: Table 1B, in µg/mL (unit assumed)
readout: MIC
Just the number, please.

Please fill in: MIC reported for CC[C@H]1OC(=O)C(C)(F)C(=O)[C@H](C)[C@@H](O[C@@H]2O[C@H](C)C[C@H](N(C)C)[C@H]2O)[C@](C)(OCC#Cc2cnc3ccccc3c2)C[C@@H](C)C(=O)[C@H](C)[C@H]2NC(=O)O[C@@]21C (stereo partly shown) [Example 26] = 0.2

Please fill in: MIC reported for CC[C@H]1OC(=O)C(C)(F)C(=O)[C@H](C)[C@@H](O[C@@H]2O[C@H](C)C[C@H](N(C)C)[C@H]2O)[C@](C)(OC)C[C@@H](C)C2=NCCN3C(=O)O[C@@]1(C)[C@H]3[C@H]2C (stereo partly shown) [Example 1] = 0.2

Moving on to another compound below.
Please fill in: MIC reported for CC[C@H]1OC(=O)[C@@](C)(F)C(=O)[C@H](C)[C@@H](O[C@@H]2O[C@H](C)C[C@H](N(C)C)[C@H]2O)[C@](C)(OC/C=C/c2cnc3ccc(C=NN=C(C)C)cc3c2)C[C@@H](C)C(=O)[C@H](C)[C@H]2NC(=O)O[C@@]21C [Example 20] = 0.78

Each recorded value in this set is attributed to patent US6124269A.
